MEASUREMENT DESCRIPTION: ovarian cancer cell viability with rucaparib, profiling panel, oncology-focused library, rucaparib conditional (AID 1508598)
ASSAY SETUP: patient-derived ovarian cancer cells, CellTiter-Glo viability, 144 h; at 0.00488 µM; OCI-P5x cells; without rucaparib; stronger effect = lower value
Give viability for every item shown.
Hi! Could you send only the number? It should be in %, unit omitted.

Request: # viability lookup, item Nc1nc(Cl)nc2c1ncn2[C@H]1C[C@H](O)[C@@H](CO)O1
Result: 106

Request: # viability lookup, item O=C1CN2Cc3c(ccc(Cl)c3Cl)N=C2N1
Result: 105

Request: # viability lookup, item C[C@H](NC(=O)Cc1cc(F)cc(F)c1)C(=O)N[C@H](C(=O)OC(C)(C)C)c1ccccc1
Result: 111

Request: # viability lookup, item C[C@@H](N)C1CCC(C(=O)Nc2ccncc2)CC1 (stereo not given in full)
Result: 96.4

Request: # viability lookup, item O=C(O)Cc1cccc(OCCCN(Cc2cccc(C(F)(F)F)c2Cl)CC(c2ccccc2)c2ccccc2)c1
Result: 108

----------
MEASUREMENT DESCRIPTION: differential killing of epithelial or mesenchymal cells, primary screen, imaging, PC-3E GFP, TEM4-18 mCherry, co-culture (AID 1345086);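 note: cells exposed to compound for 72 h before imaging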
ASSAY SETUP: imaging cell counts, measured here: epithelial PC-3E GFP cell survival, at 1 µM
MEASURED METRIC: normalised cell number
// return just the number, without any unit appended

Request: # normalised cell number lookup, item COC(=O)NC1[C@@H](O)C(O)C(CO)O[C@H]1Sc1ccccc1 (stereo not given in full)
Result: 1.06

Request: # normalised cell number lookup, item OCC(S)CS (stereo not given)
Result: 0.72

Request: # normalised cell number lookup, item C=C[C@@]1(C)CC(=O)[C@@]2(O)[C@](C)(O1)[C@@H](O)[C@@H](O)C1C(C)(C)CC[C@H](O)[C@@]12C (stereo not given in full)
Result: 0.91

Request: # normalised cell number lookup, item CC(=O)C(C)(C)[C@H]1OC2CC[C@@]3(C)[C@@](O)(CC[C@H]4Cc5c([nH]c6ccccc56)[C@@]43C)C2=CC1=O (stereo not given in full)
Result: 1.15

Request: # normalised cell number lookup, item CC(C)c1ccc2c(c1)CCC1C(C)(C(N)=O)CCCC21C (stereo not given)
Result: 1.22

Request: # normalised cell number lookup, item CC1(C)C[C@]2(C)CC(=O)O[C@H]3OC(=O)[C@@H]4CC[C@@H]1[C@]342
Result: 1.05

Request: # normalised cell number lookup, item CN(C)CCCC1(c2ccc(F)cc2)OCc2cc(C#N)ccc21 (stereo not given)
Result: 1.12

Request: # normalised cell number lookup, item C[C@@H]1CC[C@@]2(OC1)OC1CC3C4CC=C5C[C@@H](O)CC[C@]5(C)C4CC[C@]3(C)C1[C@@H]2C (stereo not given in full)
Result: 1.02

Request: # normalised cell number lookup, item C[C@H]1COC2=C1C(=O)C(=O)c1c2ccc2c1CCCC2(C)C
Result: 0.98

Request: # normalised cell number lookup, item O=c1cc(-c2ccc(O)cc2)oc2cc(O)ccc12
Result: 1.28

Request: # normalised cell number lookup, item O=c1ccn([C@@H]2O[C@H](COP(=O)(O)OP(=O)(O)OP(=O)(O)O)[C@@H](O)[C@H]2O)c(=O)[nH]1
Result: 0.94

Request: # normalised cell number lookup, item O=C1c2c(O)cccc2[C@@H](O[C@@H]2O[C@H](CO)[C@H](O)[C@@H](O)[C@H]2O)c2cc(CO)cc(O)c21
Result: 1.12

Request: # normalised cell number lookup, item CC(C)Oc1ccc2c(=O)cc(-c3ccccc3)oc2c1
Result: 1.15

Request: # normalised cell number lookup, item Cc1ccc(S[C@H]2OC(COCc3ccccc3)C(OC(=O)CCC(=O)O)[C@@H]3OC(=O)N[C@H]23)cc1 (stereo not given in full)
Result: 1.11

Request: # normalised cell number lookup, item C[C@]12CCC3c4ccc(O)cc4CCC3C1C[C@@H](O)[C@@H]2O (stereo not given in full)
Result: 1

Request: # normalised cell number lookup, item NC(=O)C(c1ccccc1)(c1ccccc1)C1CCN(CCc2ccc3c(c2)CCO3)C1 (stereo not given)
Result: 1.01

Request: # normalised cell number lookup, item C=C1C2=C(C(=O)N1OC)[C@H](O)[C@](C)(O)[C@H](CCCCC)O2
Result: 1.01

Request: # normalised cell number lookup, item CC1=CO[C@]2(C1=O)[C@H]1C(=O)O[C@]3(C[C@@H]2C)C(C)=CC(=O)O[C@]13O
Result: 1.16

Request: # normalised cell number lookup, item COc1c(N2CC[C@@H](CN)C2)c(F)cc2c(=O)c(C(=O)NO)cn(C3CC3)c12
Result: 1.04

Request: # normalised cell number lookup, item COc1cc(N)cc(OC)c1
Result: 0.97

----------
MEASUREMENT DESCRIPTION: ovarian cancer cell viability with rucaparib, profiling panel, oncology-focused library, rucaparib conditional (AID 1508598)
ASSAY SETUP: patient-derived ovarian cancer cells, CellTiter-Glo viability, 144 h; at 0.313 µM; OCI-C5x cells; without rucaparib; stronger effect = lower value
MEASURED METRIC: viability (%)
Hi! Could you send only the number? It should be in %, unit omitted.

Request: # viability lookup, item O=C(O)c1ccc(-c2c[nH]c3ncc(-c4ccccc4)cc23)cc1C1CCCC1
Result: 116

Request: # viability lookup, item Nc1nc(F)nc2c1ncn2[C@@H]1O[C@H](COP(=O)(O)O)[C@@H](O)[C@@H]1O
Result: 98.3

Request: # viability lookup, item O=c1cc(-c2cccc3c2Sc2ccccc2S3)oc(N2CCOCC2)c1
Result: 126

Request: # viability lookup, item O=C1CN2Cc3c(ccc(Cl)c3Cl)N=C2N1
Result: 118

Request: # viability lookup, item O=C(O)Cc1cccc(OCCCN(Cc2cccc(C(F)(F)F)c2Cl)CC(c2ccccc2)c2ccccc2)c1
Result: 119

Request: # viability lookup, item Cc1ccc(S(=O)(=O)/C=C/C#N)cc1
Result: 116

Request: # viability lookup, item O=C(c1ccc(OCCN2CCCCC2)cc1)c1c(-c2ccc(O)cc2)sc2cc(O)ccc12
Result: 118

Request: # viability lookup, item Nc1nc(Cl)nc2c1ncn2[C@H]1C[C@H](O)[C@@H](CO)O1
Result: 95.6

Request: # viability lookup, item C[C@@H](N)C1CCC(C(=O)Nc2ccncc2)CC1 (some centres not stated)
Result: 120

Request: # viability lookup, item CN(C)CCCn1cc(C2=C(c3c[nH]c4ccccc34)C(=O)NC2=O)c2ccccc21
Result: 134

Request: # viability lookup, item CC(C)c1onc(-c2c(Cl)cccc2Cl)c1COc1ccc(/C=C/c2cccc(C(=O)O)c2)c(Cl)c1
Result: 97.8

Request: # viability lookup, item O=c1[nH]c(-c2ccc(C(F)(F)F)cc2)nc2c1CSCC2
Result: 102

----------
Give log fold change Tl+ flux for every item shown.
Tested on: R275C/beta4
MEASUREMENT DESCRIPTION: modulators of BK channel variants, profiling panel, selectivity assay, cell-based, U2OS BacMam, thallium flux, beta subunits (AID 1259406);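 note: initial slope of Thallos dye fluorescence rise after thallium is added; log ratio against the mean of 0.3% DMSO vehicle wells on the same plate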
ASSAY SETUP: at 30 µM
// return just the number, without any unit appended

Request: Missing value: log fold change Tl+ flux, R275C/beta4, entry CC(c1ccccc1)n1c(SCc2cc(=O)oc3cc(O)ccc23)n[nH]c1=O (stereo unspecified) . Fill in?
Result: 0.102

Request: Missing value: log fold change Tl+ flux, R275C/beta4, entry O=C(c1ccc(-c2cccs2)s1)c1ccc(F)cc1F . Fill in?
Result: -0.00599

Request: Missing value: log fold change Tl+ flux, R275C/beta4, entry CSc1nc(C)nc(Sc2cccc(C(F)(F)F)c2)c1C#N . Fill in?
Result: 0.00747

Request: Missing value: log fold change Tl+ flux, R275C/beta4, entry CC1(C)SC2C(NC(=O)Cc3ccccc3)C(=O)N2C1C(=O)O (stereo unspecified) . Fill in?
Result: -0.0356

Request: Missing value: log fold change Tl+ flux, R275C/beta4, entry COc1cc(C(=O)Nc2ccccc2C(=O)NCCc2ccccn2)cc(OC)c1OC . Fill in?
Result: -0.0253

Request: Missing value: log fold change Tl+ flux, R275C/beta4, entry O=C1NC2CC2N1C(=O)OCc1ccccc1 (stereo unspecified) . Fill in?
Result: -0.029

Request: Missing value: log fold change Tl+ flux, R275C/beta4, entry CCCCCCCCCCCCSC(=S)Nc1ccc(Br)c(C)c1 . Fill in?
Result: 0.0416

Request: Missing value: log fold change Tl+ flux, R275C/beta4, entry CC(C)CC(NC(=O)C(COC(C)(C)C)NC(=O)C(Cc1ccc(O)cc1)NC(=O)C(CO)NC(=O)C(Cc1c[nH]c2ccccc12)NC(=O)C(Cc1cnc[nH]1)NC(=O)C1CCC(=O)N1)C(=O)N[C@@H](CCCN=C(N)N)C(=O)N1CCCC1C(=O)NNC(N)=O (stereo partly specified) . Fill in?
Result: -0.0787

Request: Missing value: log fold change Tl+ flux, R275C/beta4, entry CC(C)C1COC(c2cccc(C3=NC(C(C)C)CO3)n2)=N1 (stereo unspecified) . Fill in?
Result: -0.00827

Request: Missing value: log fold change Tl+ flux, R275C/beta4, entry ONC=Nc1nonc1-c1cccnc1 . Fill in?
Result: -0.00156

Request: Missing value: log fold change Tl+ flux, R275C/beta4, entry CC1(C)C[C@@H]1C(=O)N/C(=C\CCCCSC[C@H](N)C(=O)O)C(=O)O . Fill in?
Result: 0.0142

Request: Missing value: log fold change Tl+ flux, R275C/beta4, entry CC(C)(C)NC(=O)[C@@H]1C[C@@H]2CCCC[C@@H]2CN1C[C@@H](O)[C@H](Cc1ccccc1)NC(=O)[C@H](CC(N)=O)NC(=O)c1ccc2ccccc2n1 . Fill in?
Result: 0.0316

Request: Missing value: log fold change Tl+ flux, R275C/beta4, entry CN(C)c1ccc(C=NNC(N)=S)c(Cl)c1 . Fill in?
Result: -0.244

Request: Missing value: log fold change Tl+ flux, R275C/beta4, entry FC(F)(F)c1cc(C=Cc2noc(-c3ccc(CN4CCCC4)cc3)n2)cc(C(F)(F)F)c1 . Fill in?
Result: -0.00136

Request: Missing value: log fold change Tl+ flux, R275C/beta4, entry O=C1CSCC(=O)N1c1csc(C(F)(F)F)c1-c1ccccc1 . Fill in?
Result: 0.11

Request: Missing value: log fold change Tl+ flux, R275C/beta4, entry CC(N)(Cc1ccc(O)c(O)c1)C(=O)O (stereo unspecified) . Fill in?
Result: -0.0805

Request: Missing value: log fold change Tl+ flux, R275C/beta4, entry COc1ccc2c(OC(C)=O)coc2c1 . Fill in?
Result: 0.0182

Request: Missing value: log fold change Tl+ flux, R275C/beta4, entry CN(C)C=Nc1cc(Cl)c(-n2cccc2)cc1Oc1ccc(Cl)cc1 . Fill in?
Result: -0.0061

Request: Missing value: log fold change Tl+ flux, R275C/beta4, entry CC12CCC(=O)C=C1CCC1C2CCC2(C)C1CCC2(O)C(=O)CO (stereo unspecified) . Fill in?
Result: -0.0135

Request: Missing value: log fold change Tl+ flux, R275C/beta4, entry Cc1cc(C)c2cc(C(=O)Nc3ccccc3SCc3cccc(Cl)c3F)[nH]c2c1 . Fill in?
Result: 0.00151

Request: Missing value: log fold change Tl+ flux, R275C/beta4, entry O=C(Nc1csc(Cc2c(Cl)cccc2Cl)n1)NN1CCOCC1 . Fill in?
Result: 0.00549
